Target: α4β1 (Homo sapiens, UniProt P05556+P13612)
Construct: 100 µl of Jurkat cells (2.5 x 10^6 cells/ml) in DMEM plus BSA
Sequence (P13612 34-1032): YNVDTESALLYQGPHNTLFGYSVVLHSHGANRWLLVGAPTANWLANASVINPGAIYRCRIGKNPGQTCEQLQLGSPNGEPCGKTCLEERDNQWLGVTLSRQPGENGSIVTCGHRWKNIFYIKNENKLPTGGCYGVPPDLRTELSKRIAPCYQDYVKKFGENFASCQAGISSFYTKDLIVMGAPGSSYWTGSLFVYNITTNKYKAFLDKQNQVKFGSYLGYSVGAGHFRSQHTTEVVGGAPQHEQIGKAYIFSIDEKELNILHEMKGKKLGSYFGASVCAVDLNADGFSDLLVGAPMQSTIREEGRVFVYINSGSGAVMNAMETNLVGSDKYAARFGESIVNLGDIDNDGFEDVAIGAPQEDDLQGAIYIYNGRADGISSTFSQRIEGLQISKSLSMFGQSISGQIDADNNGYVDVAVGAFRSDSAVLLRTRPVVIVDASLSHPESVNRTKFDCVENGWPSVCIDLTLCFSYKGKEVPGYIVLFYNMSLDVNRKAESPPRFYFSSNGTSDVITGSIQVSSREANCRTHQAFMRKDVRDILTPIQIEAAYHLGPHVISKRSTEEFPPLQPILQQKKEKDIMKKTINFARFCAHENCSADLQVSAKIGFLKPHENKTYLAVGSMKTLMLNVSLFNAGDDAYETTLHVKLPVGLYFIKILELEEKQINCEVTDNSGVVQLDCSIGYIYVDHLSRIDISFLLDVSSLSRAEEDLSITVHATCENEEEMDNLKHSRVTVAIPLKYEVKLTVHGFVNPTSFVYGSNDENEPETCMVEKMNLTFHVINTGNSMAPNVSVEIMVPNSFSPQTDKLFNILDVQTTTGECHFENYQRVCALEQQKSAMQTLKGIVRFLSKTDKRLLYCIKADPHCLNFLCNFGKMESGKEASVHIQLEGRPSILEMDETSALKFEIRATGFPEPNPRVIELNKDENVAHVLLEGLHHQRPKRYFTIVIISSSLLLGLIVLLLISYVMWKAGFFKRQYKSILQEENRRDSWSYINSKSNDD
Sequence (P05556 21-798): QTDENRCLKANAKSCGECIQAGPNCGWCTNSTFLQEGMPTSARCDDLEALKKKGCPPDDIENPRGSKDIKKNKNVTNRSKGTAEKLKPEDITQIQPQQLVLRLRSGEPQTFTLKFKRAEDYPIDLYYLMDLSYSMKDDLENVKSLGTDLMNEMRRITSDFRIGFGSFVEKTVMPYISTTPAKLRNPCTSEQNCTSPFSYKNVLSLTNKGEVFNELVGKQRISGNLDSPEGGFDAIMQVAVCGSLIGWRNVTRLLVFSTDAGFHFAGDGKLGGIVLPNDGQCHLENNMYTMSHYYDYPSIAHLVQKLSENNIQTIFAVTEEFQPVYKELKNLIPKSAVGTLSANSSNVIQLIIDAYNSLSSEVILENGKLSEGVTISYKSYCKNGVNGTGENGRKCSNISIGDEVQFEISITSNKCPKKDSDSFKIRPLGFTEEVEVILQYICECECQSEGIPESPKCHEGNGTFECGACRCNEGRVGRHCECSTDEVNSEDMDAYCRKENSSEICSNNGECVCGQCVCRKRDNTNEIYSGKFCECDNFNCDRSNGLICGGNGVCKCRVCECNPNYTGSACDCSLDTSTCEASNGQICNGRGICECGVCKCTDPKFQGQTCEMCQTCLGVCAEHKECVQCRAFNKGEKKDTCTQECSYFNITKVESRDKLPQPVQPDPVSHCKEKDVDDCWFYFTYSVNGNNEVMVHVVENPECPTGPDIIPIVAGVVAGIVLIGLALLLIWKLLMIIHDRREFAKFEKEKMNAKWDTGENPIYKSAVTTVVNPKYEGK
Assay: Jurkat-CS-1 assay
Details: Jurkat cell adhesion to immobilized CS-1 derived peptide
From the text: The CS-1 derived peptide, CLHPGEILDVPST, and the scrambled control peptide, CLHGPIELVSDPT, were synthesized on a Beckman 990 synthesizer using t-Boc methodology. The peptides were immobilized onto microtiter plates using the heterobifunctional crosslinker 3-(2-pyridyldithio)propionic acid N-hydroxysuccinimide ester (SPDP) as reported by Pierschbacher et al., Proc. Natl. Acad. USA, 80:1224-1227 (1983). […]
pIC50: −log10 of the molar value.
Reported pIC50 is given for each of the following compounds.

                                   compound  endpoint        result
0  O=C(O)/C=C/C(=O)NC1(C(=O)N[C@@H](Cc2ccc(NC(=O)c3c(Cl)cccc3Cl)cc2)C(=O)O)CCCCC1 [Example 50]     pIC50  6.00 to 6.30
1  CC(=O)[C@H]1C[C@H](C(=O)N[C@@H](Cc2ccc(NC(=O)c3cccnc3Cl)cc2)C(=O)O)C1(C)C [Example 104]     pIC50  6.00 to 6.30
2  O=C(O)/C=C1\CCCc2c(C(=O)N[C@@H](Cc3ccc(NC(=O)c4c(Cl)cccc4Cl)cc3)C(=O)O)cccc21 [Example 134]     pIC50  6.30 to 7.10
3  O=C(O)/C=C/C(=O)Nc1cccc(C(=O)N[C@@H](Cc2ccc(NC(=O)c3c(Cl)cccc3Cl)cc2)C(=O)O)c1 [Example 37]     pIC50  6.00 to 6.30

*Q* Which value of pIC50 has been reported for CC(O)[C@H]1C[C@@H](CC(=O)N[C@@H](Cc2ccc(NC(=O)c3c(Cl)cccc3Cl)cc2)C(=O)O)C1(C)C (stereo partly drawn) [Example 89] in the records?
*A* 6.00 to 6.30

*Q* Which value of pIC50 has been reported for CC1(C)[C@@H](C(=O)N[C@@H](Cc2ccc(OCc3c(Cl)cccc3Cl)cc2)C(=O)O)C[C@H]1C(=O)O [Example 95] in the records?
*A* 6.00 to 6.30

*Q* Which value of pIC50 has been reported for O=C(C=C1CCC(C(=O)O)CC1)N[C@@H](Cc1ccc(NC(=O)c2c(Cl)cccc2Cl)cc1)C(=O)O (stereo partly drawn) [Example 127] in the records?
*A* 6.30 to 7.10

*Q* Which value of pIC50 has been reported for O=C(O)C=C1CCC(C(=O)N[C@@H](Cc2ccc(NC(=O)c3c(Cl)cccc3Cl)cc2)C(=O)O)CC1 (stereo partly drawn) [Example 126] in the records?
*A* ≥ 7.10

*Q* Which value of pIC50 has been reported for O=C(Nc1ccc(C[C@H](NC(=O)C2(NC(=O)C3CCOC3)CC3CCC2C3)C(=O)O)cc1)c1c(Cl)cccc1Cl (stereo partly drawn) [Example 78] in the records?
*A* 6.30 to 7.10

---

Biological target: α4β1 (Homo sapiens, UniProt P05556+P13612)
Construct: 100 µl of Jurkat cells (2.5 x 10^6 cells/ml) in DMEM plus BSA
Assay: Jurkat-CS-1 assay
Conditions: Jurkat cell adhesion to immobilized CS-1 derived peptide
pIC50: −log10 of the molar value.
Endpoint: pIC50

# example entries with known answers
>>> df
                                   molecule  endpoint        result
0  O=C(NC1CCCCC1C(=O)NC(Cc1ccc(NC(=O)c2c(Cl)cccc2Cl)cc1)C(=O)O)c1cc(O)c2ccccc2n1 (stereo not shown) [Example 82]     pIC50  6.30 to 7.10
1  O=C(Nc1ccc(C[C@H](NC(=O)C2(NC(=O)C3NC(C(=O)O)CS3)CC3CCC2C3)C(=O)O)cc1)c1c(Cl)cccc1Cl (stereo partly shown) [Example 75]     pIC50  6.30 to 7.10
2  O=C(NC1CCCCC1C(=O)NC(Cc1ccc(NC(=O)c2c(Cl)cccc2Cl)cc1)C(=O)O)c1cc(C(=O)O)[nH]n1 (stereo not shown) [Example 83]     pIC50        ≥ 7.10
3  O=C(O)c1cccc(C(=O)Nc2cccc(C(=O)N[C@@H](Cc3ccc(NC(=O)c4c(Cl)cccc4Cl)cc3)C(=O)O)c2)c1 [Example 42]     pIC50  6.00 to 6.30
4  CC1(C)[C@@H](C(=O)O)C[C@@H]1C(=O)N[C@@H](Cc1ccc(OCc2c(Cl)cccc2Cl)cc1)C(=O)O [Example 94]     pIC50  6.30 to 7.10
5  O=C(O)/C=C\C(=O)NC1(C(=O)N[C@@H](Cc2ccc(NC(=O)c3c(Cl)cccc3Cl)cc2)C(=O)O)CCCCC1 [Example 49]     pIC50  6.30 to 7.10

Here's the next entry for you.
*Q* Which value of pIC50 has been reported for O=C(O)c1cccc(C(=O)NC2(C(=O)N[C@@H](Cc3ccc(NC(=O)c4c(Cl)cccc4Cl)cc3)C(=O)O)CCCCC2)n1 [Example 62] in the records?
*A* 6.30 to 7.10
